Measured IC50 values are reported for all entries that follow.
target: SARS-CoV-2 S (Severe acute respiratory syndrome coronavirus 2, UniProt P0DTC2); construct: expressed in transfected cells; test: β-Gal complementation-based cell-cell fusion assay (S-protein-mediated fusion); conditions: IC50, inhibition of S-mediated fusion
Non-standard residues stand in square brackets, D forms with d. *: point of attachment. X2 = CC(C)CCC[C@@H](C)[C@H]1CC[C@H]2[C@@H]3CC=C4C[C@@H](OC(=O)CCOCCOCCOCCOCCNC(=O)C*)CC[C@]4(C)[C@H]3CC[C@]12C; β3hE = N[C@@H](CCC(=O)O)CC(=O)O; β3hQ = NC(=O)CC[C@H](N)CC(=O)O; β3hD = NC(CC(=O)O)CC(=O)O

// IC50 lookup, key: Ac-[β3hD]IS[β3hQ]INASVVNIEYEIKKLEEVAKKLEESLI[β3hD]LQ[β3hE]LGSGSGC(X2)-NH2 [D1 Q4 D32 E35]
~50 nM

Kindly review the next substance as well.
For the substance shown here, Ac-[β3hD]IS[β3hQ]INASVVNIEYEIKKLEEVAKKLEESLI[β3hD]L[β3hQ]ELGSGSGC(X2)-NH2 [D1 Q4 D32 Q34] , give the reported IC50.
~10 nM
